assay: Metabolic stability in human liver microsomes at 1 uM in presence of NADPH incubated for 5 mins by LC-MS/MS analysis; format: ADME, Microsome; conditions: read-out: Stability
Measurement Name: remaining at 5 min, 1 µM (%)
Could you give me the number in %? Just the number is fine.

[in] Provide measured remaining at 5 min, 1 µM value, entry: "C=CC(=O)N(Cc1cc(C)no1)c1nc(-c2ccccc2O)cs1"
[out] 14.8

---

Molecular target: Glutathione S-transferase omega-1 (Homo sapiens)
Sequence (P78417 whole entry): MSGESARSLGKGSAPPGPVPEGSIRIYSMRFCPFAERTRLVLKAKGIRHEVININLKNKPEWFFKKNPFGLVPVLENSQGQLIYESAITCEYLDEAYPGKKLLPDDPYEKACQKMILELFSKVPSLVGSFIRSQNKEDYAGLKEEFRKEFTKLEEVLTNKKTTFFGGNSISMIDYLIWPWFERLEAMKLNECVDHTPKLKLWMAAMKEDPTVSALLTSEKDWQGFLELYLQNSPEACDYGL
pIC50: −log10 of the molar value.
Measurement Name: pIC50

C=CC(=O)N1CCC(Cc2ccccc2)CC1	< 5.00

Could you now consider this next compound?
[in] Provide measured pIC50 value, entry: "COC(=O)/C=C/CNc1ccc(Cl)c(S(=O)(=O)N(C)C)c1"
[out] < 5.00

---

assay: Metabolic stability in mouse liver microsomes at 1 uM in presence of NADPH incubated for 45 mins by LC-MS/MS analysis; assay type: ADME, Microsome; conditions: read-out: Stability
Measurement Name: remaining at 0.75 h, 1 µM

[in] Provide measured remaining at 0.75 h, 1 µM value, entry: "C=CC(=O)N(Cc1cc(C)no1)c1nc(-c2ccccc2O)cs1"
[out] 4%

---

assay: Metabolic stability in human liver microsomes at 1 uM in presence of NADPH incubated for 45 mins by LC-MS/MS analysis; type: ADME, Microsome; conditions: read-out: Stability
Measurement Name: remaining at 0.75 h, 1 µM (%)
Could you give me the number in %? Just the number is fine.

[in] Provide measured remaining at 0.75 h, 1 µM value, entry: "C=CC(=O)N(Cc1cc(C)no1)c1nc(-c2ccccc2O)cs1"
[out] 3.7

---

experiment: Metabolic stability in mouse liver microsomes at 1 uM in presence of NADPH incubated for 60 mins by LC-MS/MS analysis; format: ADME, Microsome; details: read-out: Stability
Measurement Name: remaining at 1 h, 1 µM (%)
Could you give me the number in %? Just the number is fine.

[in] Provide measured remaining at 1 h, 1 µM value, entry: "C=CC(=O)N(Cc1cc(C)no1)c1nc(-c2ccccc2O)cs1"
[out] 4

---

test: Metabolic stability in human liver microsomes at 1 uM in presence of NADPH incubated for 0 mins by LC-MS/MS analysis; type: ADME, Microsome; conditions: read-out: Stability
Measurement Name: remaining at 0 h, 1 µM (%)
Could you give me the number in %? Just the number is fine.

[in] Provide measured remaining at 0 h, 1 µM value, entry: "C=CC(=O)N(Cc1cc(C)no1)c1nc(-c2ccccc2O)cs1"
[out] 100

---

assay: Metabolic stability in mouse liver microsomes at 1 uM in presence of NADPH incubated for 15 mins by LC-MS/MS analysis; assay type: ADME, Microsome; settings: read-out: Stability
Measurement Name: remaining at […], 1 µM (%)
Could you give me the number in %? Just the number is fine.

[in] Provide measured remaining at […], 1 µM value, entry: "C=CC(=O)N(Cc1cc(C)no1)c1nc(-c2ccccc2O)cs1"
[out] 12
